- targetOrTestSystem: NAD-dependent protein deacetylase sirtuin-2 (Homo sapiens)
pIC50: −log10 of the molar value.
reportedEndpoint: pIC50

compound	reportedEndpoint	censoringQualifier	readoutNumber
NC(=O)C1CN(Cc2ccccn2)c2ccccc2O1 (configuration not stated)	pIC50	<	4.22
CCOC(=O)C1CN(Cc2ccccc2)c2ccccc2O1 (configuration not stated)	pIC50	<	4.22
CC(C)(C)OC(=O)Nc1nc(CN2CC(C(N)=O)Oc3ccccc32)cs1 (configuration not stated)	pIC50	<	4.22
COC(=O)c1ccc(CN2CC(C(N)=O)Oc3ccccc32)cc1 (configuration not stated)	pIC50	<	4.22
O=C(O)C1CN(Cc2ccccc2)c2ccccc2O1 (configuration not stated)	pIC50	<	4.22
COc1cccc(CN2CC(C(N)=O)Oc3ccccc32)c1 (configuration not stated)	pIC50	=	4.81
CC(=O)Nc1ccc(CN2CC(C(N)=O)Oc3ccccc32)cc1 (configuration not stated)	pIC50	<	4.22
NC(=O)C1CN(Cc2cccnc2)c2ccccc2O1 (configuration not stated)	pIC50	=	4.24
NC(=O)C1CN(Cc2ccc(C(F)(F)F)cc2)c2ccccc2O1 (configuration not stated)	pIC50	=	4.64
COc1ccc(CN2CC(C(N)=O)Oc3ccccc32)cc1 (configuration not stated)	pIC50	=	4.50
CC(=O)Nc1ccccc1CN1CC(C(N)=O)Oc2ccccc21 (configuration not stated)	pIC50	<	4.22
NC(=O)C1CN(Cc2ccccc2Cl)c2ccccc2O1 (configuration not stated)	pIC50	=	4.47

----------
Measured IC50 by item
- targetOrTestSystem: NAD-dependent protein deacetylase sirtuin-1 (Homo sapiens, UniProt Q96EB6)
- Sequence (Q96EB6 whole entry): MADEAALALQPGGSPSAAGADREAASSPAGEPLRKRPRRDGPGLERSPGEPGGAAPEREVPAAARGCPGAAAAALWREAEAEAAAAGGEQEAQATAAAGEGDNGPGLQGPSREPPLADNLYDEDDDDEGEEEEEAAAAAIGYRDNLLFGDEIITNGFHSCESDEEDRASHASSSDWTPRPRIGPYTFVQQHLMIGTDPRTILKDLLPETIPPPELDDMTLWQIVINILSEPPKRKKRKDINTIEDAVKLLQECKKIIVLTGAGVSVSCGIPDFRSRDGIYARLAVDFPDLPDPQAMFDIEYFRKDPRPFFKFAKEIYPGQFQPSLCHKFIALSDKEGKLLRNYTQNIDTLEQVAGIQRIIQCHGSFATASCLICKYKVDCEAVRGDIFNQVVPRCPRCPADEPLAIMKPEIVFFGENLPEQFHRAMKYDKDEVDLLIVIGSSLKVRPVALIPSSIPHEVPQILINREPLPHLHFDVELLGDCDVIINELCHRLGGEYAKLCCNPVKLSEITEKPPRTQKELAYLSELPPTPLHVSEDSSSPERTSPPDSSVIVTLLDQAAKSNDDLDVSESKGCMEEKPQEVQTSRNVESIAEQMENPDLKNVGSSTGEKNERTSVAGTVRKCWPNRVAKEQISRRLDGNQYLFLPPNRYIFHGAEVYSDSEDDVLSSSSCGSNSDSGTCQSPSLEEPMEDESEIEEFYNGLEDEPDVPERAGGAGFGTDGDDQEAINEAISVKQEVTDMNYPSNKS
reportedEndpoint: IC50

molecule	result
COC(=O)c1ccc(CN2CC(C(N)=O)Oc3ccccc32)cc1 (stereo not drawn)	3.45 µM
COc1ccc(CN2CC(C(N)=O)Oc3ccccc32)cc1 (stereo not drawn)	1.45 µM
NC(=O)C1CN(Cc2ccccn2)c2ccccc2O1 (stereo not drawn)	2.1 µM
Cc1ccc(NC(=O)N2CC(C(N)=O)Oc3ccccc32)cc1 (stereo not drawn)	> 60 µM
COc1cccc(CN2CC(C(N)=O)Oc3ccccc32)c1 (stereo not drawn)	2.13 µM
NC(=O)C1CN(S(=O)(=O)c2cccc3ccccc23)c2ccccc2O1 (stereo not drawn)	> 60 µM
NC(=O)C1CN(Cc2ccccc2N)c2ccccc2O1 (stereo not drawn)	4.91 µM
COC(=O)c1ccccc1CN1CC(C(N)=O)Oc2ccccc21 (stereo not drawn)	0.49 µM

----------
- targetOrTestSystem: UniProtKB Q8IXJ6
- Sequence (Q8IXJ6 whole entry): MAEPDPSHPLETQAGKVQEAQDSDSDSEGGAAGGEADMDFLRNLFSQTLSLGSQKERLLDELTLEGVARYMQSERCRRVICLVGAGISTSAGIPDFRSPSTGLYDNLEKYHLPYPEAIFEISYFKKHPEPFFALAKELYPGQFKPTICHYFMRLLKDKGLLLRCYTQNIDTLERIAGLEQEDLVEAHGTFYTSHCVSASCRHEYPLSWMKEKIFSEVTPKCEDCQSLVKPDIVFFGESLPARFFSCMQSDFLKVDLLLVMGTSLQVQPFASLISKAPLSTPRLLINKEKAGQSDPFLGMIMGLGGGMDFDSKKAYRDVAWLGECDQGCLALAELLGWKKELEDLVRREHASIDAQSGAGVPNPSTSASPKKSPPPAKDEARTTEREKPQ

molecule	targetOrTestSystem	IC50
CC(=O)Nc1cccc(CN2CC(C(N)=O)Oc3ccccc32)c1 (stereo unspecified)	UniProtKB Q8IXJ6	> 60 µM
N#Cc1cccc(CN2CC(C(N)=O)Oc3ccccc32)c1 (stereo unspecified)	UniProtKB Q8IXJ6	11.2 µM
NC(=O)C1CNc2ccccc2O1 (stereo unspecified)	UniProtKB Q8IXJ6	> 60 µM
N#Cc1ccccc1CN1CC(C(N)=O)Oc2ccccc21 (stereo in doubt; 4.27)	UniProtKB Q8IXJ6	37.7 µM
NC(=O)C1CN(C(=O)c2ccc(CCl)cc2)c2ccccc2O1 (stereo unspecified)	UniProtKB Q8IXJ6	> 60 µM
NC(=O)C1CN(Cc2ccccc2C(=O)O)c2ccccc2O1 (stereo unspecified)	UniProtKB Q8IXJ6	> 60 µM

----------
- targetOrTestSystem: NAD-dependent protein deacetylase sirtuin-1 (Homo sapiens, UniProt Q96EB6)
reportedEndpoint: IC50 (µM)

molecule	censoringQualifier	readoutNumber
NC(=O)C1CN(Cc2ccc(C(F)(F)F)cc2)c2ccccc2O1 (stereo not given)	=	28.5
CN(C)C(=O)C1CN(Cc2ccccc2)c2ccccc2O1 (stereo not given)	>	60
CN1CC(C(N)=O)Oc2ccccc21 (stereo not given)	>	60
NC(=O)C1CN(Cc2cccc([N+](=O)[O-])c2)c2ccccc2O1 (stereo not given)	=	0.23
COc1ccc(C(=O)N2CC(C(N)=O)Oc3ccccc32)cc1 (stereo not given)	>	60
NC(=O)C1CN(Cc2ccccc2F)c2ccccc2O1 (stereo not given)	=	1.77
C#CCN1CC(C(N)=O)Oc2ccccc21 (stereo not given)	>	60
N#Cc1ccccc1CN1CC(C(N)=O)Oc2ccccc21 (stereo in doubt; form 1)	=	47.3
CCOC(=O)C1CNc2ccccc2O1 (stereo not given)	>	60
CC(=O)Nc1cccc(CN2CC(C(N)=O)Oc3ccccc32)c1 (stereo not given)	=	2.4
NC(=O)C1CN(Cc2ccc3nonc3c2)c2ccccc2O1 (stereo not given)	>	60
CC(C)(C)OC(=O)c1ccc(CN2CC(C(N)=O)Oc3ccccc32)cc1 (stereo not given)	=	20.1
NC(=O)C1CN(Cc2ccccc2C(F)(F)F)c2ccccc2O1 (stereo not given)	=	0.97
NC(=O)C1CN(Cc2ccccc2Br)c2ccccc2O1 (stereo not given)	=	0.56
O=C(O)C1CN(Cc2ccccc2)c2ccccc2O1 (stereo not given)	>	60
